For each record, write down the corresponding protein stability index.
B1: POMT2 (parent)
chain: VKYNSCADRPFSAPWWFWLSLTGV

Variants of: B1
Experiment: protein stability index of a GFP-peptide fusion (GPS, HEK-293T) (PSI 1-6); higher = more stable;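 further: lentivirally expressed fusions sorted by FACS into six bins by GFP to DsRed ratio, PSI derived from sequencing read proportions per bin multiplied by bin number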
Settings: c terminus: a fixed tail appended
Give only the figure.

Ask: // fetch protein stability index given entry `L21P`
Reply: 2.68

Ask: // fetch protein stability index given entry `S12I`
Reply: 3.2

Ask: // fetch protein stability index given entry `G23F`
Reply: 2.65

Ask: // fetch protein stability index given entry `L21A`
Reply: 3.62

Ask: // fetch protein stability index given entry `A13S`
Reply: 2.06

Ask: // fetch protein stability index given entry `K2R`
Reply: 2.2

Ask: // fetch protein stability index given entry `G23C`
Reply: 1.24

Ask: // fetch protein stability index given entry `L19T`
Reply: 1.64

Ask: // fetch protein stability index given entry `V24E`
Reply: 1

Ask: // fetch protein stability index given entry `W16V`
Reply: 2.01

Ask: // fetch protein stability index given entry `W16T`
Reply: 3.23

Ask: // fetch protein stability index given entry `L19N`
Reply: 2.79

Ask: // fetch protein stability index given entry `V24I`
Reply: 2.98

Ask: // fetch protein stability index given entry `C6I`
Reply: 2.36

Ask: // fetch protein stability index given entry `C6W`
Reply: 1

Ask: // fetch protein stability index given entry `P10K`
Reply: 4.18

Ask: // fetch protein stability index given entry `L19F`
Reply: 2.95

Ask: // fetch protein stability index given entry `A13G`
Reply: 2.11

Ask: // fetch protein stability index given entry `F17W`
Reply: 1.33

Ask: // fetch protein stability index given entry `V1L`
Reply: 1.66

Where do these numbers come from? They come from the supplement of paper PMC10567573.
